- Tested on: Phenocell CrT deficient neurons (iPSC-derived human neurons)
- assay: Creatine prodrug uptake and d3-creatine release in Phenocell CrT deficient neurons (Table 4B)
- Assay type: cell-based
- measurement setup: Study No. 3, 50 μM, 2 hours
Catalogue of Prodrug concentration in the cell cytosol readings, one per entry.
reported endpoint: Prodrug concentration in the cell cytosol (nmoles/mg protein)

- compound: "[2H]C([2H])([2H])N1CC(=O)OC(CCC)CCCCCCCC(=O)NC1=N (centres unmarked)"
  numeric value: 0.44
- compound: "[2H]C([2H])([2H])N1CC(=O)OC(C)(C)CCCCCCCCC(=O)NC1=N"
  numeric value: 0.088
- compound: "Cl.[2H]C([2H])([2H])N(CC(=O)OC(C)C(C)(C)C)C(=N)NC(=O)CCCCCCCCCC (centres unmarked)"
  numeric value: 0.51
- compound: "[2H]C([2H])([2H])N1CC(=O)OC(C)(C)CCCCCCCCCC(=O)NC1=N"
  numeric value: 0.48

----------
- assay: Chemical stability in phosphate buffered saline (PBS)
- Assay type: physicochemical
- measurement setup: Table 2A, 50 μM prodrug
reported endpoint: Chemical Stability PBS % T0 at 2 hours at 37 °C. (%)

- compound: "Cl.[2H]C([2H])([2H])N(CC(=O)OCCCCCCC)C(=N)NC(=O)CCCCCCCCCC [Compound 5]"
  numeric value: 23
- compound: "Cl.[2H]C([2H])([2H])N(CC(=O)OC(C)(C)C)C(=N)NC(=O)CCCCCCCCCC [Compound 44]"
  numeric value: 42
- compound: "Cl.[2H]C([2H])([2H])N(CC(=O)OCc1oc(=O)oc1C)C(=N)NC(=O)CCCCCCCCCC [Compound 48]"
  numeric value: 97
- compound: "[2H]C([2H])([2H])N(CC(=O)[O-])C(=N)NC(=O)CCCCCCC.[Na+] [Compound 38]"
  numeric value: 101
- compound: "[2H]C([2H])([2H])N(CC(=O)O)C(=N)NC(=O)c1cccnc1 [Compound 21]"
  numeric value: 105
- compound: "Cl.[2H]C([2H])([2H])N(CC(=O)OCC)C(=N)NC(=O)CCCCCCCCCC [Compound 8]"
  numeric value: 0
- compound: "[2H]C([2H])([2H])N1CC(=O)N=C1NC(=O)CCCCCCCCCC [Compound 49]"
  numeric value: 87
- compound: "[2H]C([2H])([2H])N(CC(=O)[O-])C(=N)NC(=O)CCCCCCCCCC.[K+] [Compound 33]"
  numeric value: 85
- compound: "[2H]C([2H])([2H])N(CC(=O)O)C(=N)NC(=O)CCCCCCCCCCC [Compound 30]"
  numeric value: 145
- compound: "[2H]C([2H])([2H])N(CC(=O)[O-])C(=N)NC(=O)c1cccnc1.[Na+] [Compound 20]"
  numeric value: 101
- compound: "[2H]C([2H])([2H])N(CC(=O)[O-])C(=N)NC(=O)CCC/C=C\\C/C=C\\C/C=C\\C/C=C\\CCCCC.[Na+] [Compound 22]"
  numeric value: 35
- compound: "[2H]C([2H])([2H])N(CC(=O)[O-])C(=N)NC(=O)CCCCCCCCCCC.[Na+] [Compound 31]"
  numeric value: 98
- compound: "[2H]C([2H])([2H])N(CC(=O)[O-])C(=N)NC(=O)CCCCCCCCCCCC.[Na+] [Compound 29]"
  numeric value: 64
- compound: "Cl.[H]/N=C(/NC(=O)CCCCCCC/C=C\\CCCCCCCC)N(CC(=O)OCCCCCCC)C([2H])([2H])[2H] [Compound 2]"
  numeric value: 61
- compound: "[2H]C([2H])([2H])N(CC(=O)OCC)/C(=N\\C(=O)OC(C)(C)C)NC(=O)CCCCCCCCCC [Compound 47]"
  numeric value: 55
- compound: "[2H]C([2H])([2H])N(CC(=O)OCC)C(=N)NC(=O)CCCCCCCCCCCC [Compound 46]"
  numeric value: 0

All values here come from patent US11332438B2.
